- Target Entity: CLK1 (Homo sapiens)
- Construct: purchased DiscoverX
- Sequence (P49759 whole entry): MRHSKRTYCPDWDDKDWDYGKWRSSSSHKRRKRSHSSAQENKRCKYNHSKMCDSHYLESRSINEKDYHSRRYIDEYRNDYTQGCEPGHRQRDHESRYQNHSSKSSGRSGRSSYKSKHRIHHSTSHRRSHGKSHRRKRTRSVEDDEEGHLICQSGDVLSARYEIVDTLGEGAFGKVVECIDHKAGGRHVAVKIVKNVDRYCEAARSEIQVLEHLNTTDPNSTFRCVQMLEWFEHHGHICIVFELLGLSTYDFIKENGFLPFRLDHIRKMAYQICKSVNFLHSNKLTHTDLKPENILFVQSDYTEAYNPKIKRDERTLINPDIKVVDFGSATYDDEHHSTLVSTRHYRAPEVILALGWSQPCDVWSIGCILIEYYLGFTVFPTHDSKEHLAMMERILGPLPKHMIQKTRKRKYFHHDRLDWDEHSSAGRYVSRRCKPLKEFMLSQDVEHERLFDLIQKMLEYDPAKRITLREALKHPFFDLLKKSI
- Test Name: scanMAX Kinase panel (DiscoverX), % control
- Assay type: binding
- Conditions: <35% = active
Value Kind: remaining binding at 1 µM (%)
Answers are plain numbers, in %.

Worked examples follow.
## Input Would you mind telling me what remaining binding at 1 µM value was observed for O=C(c1ccc(Nc2cc(C3CC3)c3c(C(F)(F)F)c[nH]c3n2)c2c1CCO2)N1CC[C@@H](N2CCOCC2)C1 [Example 238] ?
## Output 2.4

## Input Would you mind telling me what remaining binding at 1 µM value was observed for CNc1cc(Nc2ccc(C(=O)N3CC[C@H](N4CCOCC4)C3)c3c2OCC3)nc2[nH]cc(C(F)(F)F)c12 [Example 217] ?
## Output 2.4

## Input Would you mind telling me what remaining binding at 1 µM value was observed for CNc1cc(Nc2ccc(P3(=O)CCN(C4CC4)CC3)cc2OC)nc2[nH]cc(C(F)(F)F)c12 [Example 205] ?
## Output 18

Consider the following items and state reported remaining binding at 1 µM for each.
1. COCCNc1cc(Nc2ccc(P3(=O)CCN(C4CC4)CC3)cc2OC)nc2[nH]cc(C(F)(F)F)c12 [Example 207]
2. CCNc1cc(Nc2ccc(S(=O)(=O)N3CCC(N4CCOCC4)CC3)c3c2OCCO3)nc2[nH]cc(C(F)(F)F)c12 [Example 96]
3. CCCNc1cc(Nc2ccc(C(=O)N3CCC(N4CCOCC4)CC3)c3c2OCCO3)nc2[nH]cc(C(F)(F)F)c12 [Example 162]
4. CCNc1cc(Nc2ccc(P3(=O)CCN(C4CC4)CC3)cc2OC)nc2[nH]cc(C(F)(F)F)c12 [Example 206]
5. O=C(c1ccc(Nc2cc(C3CC3)c3c(C(F)(F)F)c[nH]c3n2)c2c1OCCO2)N1CCC(N2CCOCC2)CC1 [Example 221]
6. O=C(c1ccc(Nc2cc(C3CC3)c3c(C(F)(F)F)c[nH]c3n2)c2c1CCO2)N1CC[C@H](N2CCOCC2)C1 [Example 237]

## Output
5.6
9.7
13
8.5
7.5
3.6

Consider the following items and state reported remaining binding at 1 µM for each.
1. CNc1cc(Nc2ccc(S(=O)(=O)N3CCC(N4CCOCC4)CC3)cc2OC)nc2[nH]cc(C(F)(F)F)c12 [Example 184]
2. CNc1cc(Nc2ccc(C(=O)N3CCC(N4CCOCC4)CC3)c3c2OCCO3)nc2[nH]cc(C(F)(F)F)c12 [Example 160]
3. CCNc1cc(Nc2ccc(C(=O)N3CCC(N4C[C@@H]5C[C@H]4CO5)CC3)c3c2OCC3)nc2[nH]cc(C(F)(F)F)c12 [Example 105]

## Output
1: 3.4; 2: 13; 3: 1.5
